- Method summary: Quantitative High-Throughput drug screen in 47 multiple myeloma cell lines against the NCATS MIPE library collection: FR4_PLB cell viability assay (AID 1918924; note: nearly all actives have a fitted effect of over 35% in size)
- Condition description: FR4_PLB myeloma cells viability, CellTiter-Glo ATP, 48 h; series mostly up to 45.8 µM
Records with an inconclusive call do not appear. The source made the active and inactive calls. Calls come from the whole dose curve; as a rule, active = well fitted cell-killing curve with a large enough effect; inconclusive = small, poorly fitted or top-dose-only effect, or effect the other way; inactive = no such curve, though single readings can be large or run the other way.
Can you answer with just one of these options? active, inactive

Answered cases to consult:
> print(dat)
                           substance.smiles  class.assignment
1  CON=C(C(=O)N[C@@H]1C(=O)N2C(C(=O)O)=C(Cn3ccc(=N)n3CCO)CS[C@H]12)c1csc(N)n1          inactive
2  O=c1[nH]c(=O)n([C@H]2C[C@@H](O)[C@@H](CO)O2)cc1F            active
3  C[C@H](CCC(=O)O)[C@H]1CC[C@H]2[C@@H]3[C@H](O)C[C@@H]4C[C@H](O)CC[C@]4(C)[C@@H]3CC[C@]12C          inactive

Request: In this assay, the call recorded for c1ccc(CNc2nc(NCc3ccccc3)c3ccccc3n2)cc1 was what?
Result: active

Request: In this assay, the call recorded for COc1cccc2c1C(=O)c1c(O)c3c(c(O)c1C2=O)C[C@@](O)(C(=O)CO)C[C@H]3O[C@H]1C[C@H](N)[C@H](O)[C@H](C)O1 was what?
Result: active

Request: In this assay, the call recorded for O=C(O)[C@H](CC(=O)N1C[C@@H]2CCCC[C@H]2C1)Cc1ccccc1 was what?
Result: inactive

Request: In this assay, the call recorded for COc1cc(OC)c(NC(=O)Nc2cc(C)on2)cc1Cl was what?
Result: inactive

Request: In this assay, the call recorded for CC1(C)O[C@@H]2C[C@H]3[C@@H]4CCC5=CC(=O)C=C[C@]5(C)[C@@H]4[C@@H](O)C[C@]3(C)[C@]2(C(=O)CO)O1 was what?
Result: inactive

Origin of values: PubChem BioAssay (NCATS)
